Origin of values: the supplement of paper PMC5908809

Test system: normal primary NK cells, pool 2 (3 donors) (IL-2 2.5 ng/mL)
Assay: percent inhibition of viability; higher = more inhibition
Conditions: 72 h; 1 nM
PROPERTY_LABEL: percent inhibition of viability (%)
Report as a plain number; the unit % is understood.

These recorded examples may help you get a feel for the data.
INSERT INTO results (compound, property_label, data_value) VALUES
  ('Oc1ncnc2[nH]ncc12 [Allopurinol] (max concentration tested 10000 nM)', 'percent inhibition of viability', 4.21),
  ('N#CC[C@H](C1CCCC1)n1cc(-c2ncnc3[nH]ccc23)cn1 [Ruxolitinib] (max concentration tested 10000 nM)', 'percent inhibition of viability', -1.35),
  ('O=C(/C=C/c1cccc(S(=O)(=O)Nc2ccccc2)c1)NO [Belinostat] (max concentration tested 10000 nM)', 'percent inhibition of viability', -8.09);

Would you kindly share the measured percent inhibition of viability for CC(=O)O[C@H]1C(=O)[C@@]2(C)[C@H]([C@H](OC(=O)c3ccccc3)[C@]3(O)C[C@H](OC(=O)[C@H](O)[C@@H](NC(=O)c4ccccc4)c4ccccc4)C(C)=C1C3(C)C)[C@]1(OC(C)=O)CO[C@@H]1C[C@@H]2O [Paclitaxel] (max concentration tested 1000 nM) ?
-0.3

Another: C=CC(=O)N1CCC[C@@H](n2nc(-c3ccc(Oc4ccccc4)cc3)c3c(N)ncnc32)C1 [Ibrutinib] (max concentration tested 1000 nM)
0.44

Another: CN(C)CCOc1ccc(/C(=C(/CCCl)c2ccccc2)c2ccccc2)cc1 [Toremifene] (max concentration tested 10000 nM)
-4.96

* * *

Tested on: NKL (IL-2 2.5 ng/mL)
Experiment: drug sensitivity score (DSS) (DSS units); higher = more sensitive; extreme values may be limits of the assay
Conditions: 72 h
Decision: drug sensitivity score >= 3 yields True, all other cases yield False.

These solved cases illustrate the format of a correct answer.
INSERT INTO results (compound, category_label) VALUES
  ('C[C@@H](Nc1cc(F)cc(F)c1)c1cc(C(=O)N(C)C)cc2c(=O)cc(N3CCOCC3)oc12 [AZD-8186] (max concentration tested 1000 nM)', 'False'),
  ('CNC(=O)c1cc(COc2nnc(Nc3ccc(Cl)cc3)c3ccoc23)ccn1 [Telatinib] (max concentration tested 10000 nM)', 'True'),
  ('CN(C)CCOc1ccc(/C(=C(/CCCl)c2ccccc2)c2ccccc2)cc1 [Toremifene] (max concentration tested 10000 nM)', 'False');

For this compound, is measured drug sensitivity score 3 or higher? CS(=O)(=O)c1ccc(-c2cnc(N)c(C(=O)Nc3ccccc3)n2)cc1 [VE-821] (max concentration tested 10000 nM)
False

Another: Nc1nccc(-c2c(-c3ccc(F)cc3)ncn2C2CCCCC2)n1 (max concentration tested 10000 nM)
False

Another: C[C@@]1(C(=O)Nc2ccc(F)nc2)CCCN1c1nc(Nc2cc(C3CC3)n[nH]2)c2cccn2n1 (max concentration tested 10000 nM)
False

Another: CNC(=O)c1ccc(-c2cnc3ncc(Cc4ccc5ncccc5c4)n3n2)cc1F [NVP-INC280] (max concentration tested 1000 nM)
False

Another: CCn1c(=O)c(-c2cc[nH]n2)cc2c(C)nc(N)nc21 [Voxtalisib] (max concentration tested 10000 nM)
True

Another: C[C@@H](Oc1cc(-n2cnc3ccc(CN4CCN(C)CC4)cc32)sc1C(N)=O)c1ccccc1C(F)(F)F (max concentration tested 10000 nM)
True

Another: Cc1cc(C)c(CNC(=O)c2cc(-c3ccc(CN4CCOCC4)cc3)cc3c2cnn3C2CCCC2)c(=O)[nH]1 [EPZ-5687] (max concentration tested 10000 nM)
False

Another: c1ccc2c(CCNc3ccc(Nc4ccncc4)cc3)c[nH]c2c1 [Serdemetan] (max concentration tested 10000 nM)
True

* * *

Tested on: normal primary NK cells, pool 2 (3 donors) (IL-2 2.5 ng/mL)
Experiment: drug sensitivity score (DSS) (DSS units); higher = more sensitive; extreme values may be limits of the assay
Settings: 72 h
Entries and their drug sensitivity score

These recorded examples may help you get a feel for the data.
INSERT INTO results (molecule, tested_system, property_label, data_value) VALUES
  ('C[C@]12CC[C@@H]3c4ccc(OC(=O)N(CCCl)CCCl)cc4CC[C@H]3[C@@H]1CC[C@@H]2O [Estramustine] (max concentration tested 10000 nM)', 'normal primary NK cells, pool 2 (3 donors) (IL-2 2.5 ng/mL)', 'drug sensitivity score', 0),
  ('O=c1[nH]cc(F)c(=O)[nH]1 [Fluorouracil] (max concentration tested 10000 nM)', 'normal primary NK cells, pool 2 (3 donors) (IL-2 2.5 ng/mL)', 'drug sensitivity score', 0);

Hello, I am looking for reported drug sensitivity score with normal primary NK cells, pool 2 (3 donors) (IL-2 2.5 ng/mL) for COc1cc(N2CCC(N3CCN(C)CC3)CC2)ccc1Nc1ncnc(Nc2ccccc2S(=O)(=O)C(C)C)n1 [ASP3026] (max concentration tested 10000 nM) . Could you help?
0.97

Another: CCCCc1nc2cc(/C=C/C(=O)NO)ccc2n1CCN(CC)CC [Pracinostat] (max concentration tested 10000 nM)
20.6

Another: COc1cc2/c(=N/c3ccc(Br)cc3F)nc[nH]c2cc1OCC1CCN(C)CC1 [Vandetanib] (max concentration tested 1000 nM)
0.01

Another: Nc1nc2[nH]cc(CCc3ccc(C(=O)N[C@@H](CCC(=O)O)C(=O)O)cc3)c2c(=O)[nH]1 [Pemetrexed] (max concentration tested 10000 nM)
0

Another: CNC(=O)c1cc(Oc2ccc(NC(=O)Nc3ccc(Cl)c(C(F)(F)F)c3)c(F)c2)ccn1 [Regorafenib] (max concentration tested 10000 nM)
5.3

Another: Nc1nc(Cl)nc2c1ncn2[C@H]1C[C@H](O)[C@@H](CO)O1 [Cladribine] (max concentration tested 1000 nM)
20.3

Another: CCCCC(=O)OCC(=O)[C@]1(O)Cc2c(O)c3c(c(O)c2[C@@H](O[C@H]2C[C@H](NC(=O)C(F)(F)F)[C@H](O)[C@H](C)O2)C1)C(=O)c1c(OC)cccc1C3=O [Valrubicin] (max concentration tested 5000 nM)
14.2

Another: CC(=O)O[C@]1(C(C)=O)CC[C@H]2[C@@H]3C=C(C)C4=CC(=O)CC[C@]4(C)[C@H]3CC[C@@]21C [Megestrol acetate] (max concentration tested 10000 nM)
4.38

* * *

Entries and their percent inhibition of viability
System: normal primary NK cells, pool 3 (3 donors) (IL-2 2.5 ng/mL)
Assay: percent inhibition of viability; higher = more inhibition
Conditions: 72 h; 10000 nM
Report as a plain number; the unit % is understood.

Would you kindly share the measured percent inhibition of viability for O=C(Nc1cccc(Nc2ncc(Br)c(NCCc3cnc[nH]3)n2)c1)N1CCCC1 [BX-912] (max concentration tested 10000 nM) ?
59.6

Another: C[C@@]1(C(=O)Nc2ccc(F)nc2)CCCN1c1nc(Nc2cc(C3CC3)n[nH]2)c2cccn2n1 (max concentration tested 10000 nM)
-2.1

Another: COc1cc(OC2CCN(C)CC2)ccc1Nc1ncc2c(n1)n(C1CCCC1)c(=O)n2C [AZ 3146] (max concentration tested 10000 nM)
80

* * *

System: KAI3 (IL-2 2.5 ng/mL)
Assay: drug sensitivity score (DSS) (DSS units); higher = more sensitive; extreme values may be limits of the assay
Conditions: 72 h
PROPERTY_LABEL: drug sensitivity score
Answer with a bare number; do not write a unit.

These recorded examples may help you get a feel for the data.
INSERT INTO results (compound, data_value) VALUES
  ('CC1(C)CNc2cc(NC(=O)c3cccnc3NCc3ccncc3)ccc21 [Motesanib] (max concentration tested 10000 nM)', 1.11),
  ('CCCCc1nc2cc(/C=C/C(=O)NO)ccc2n1CCN(CC)CC [Pracinostat] (max concentration tested 10000 nM)', 25.4),
  ('N#Cc1ccc(COC[C@H]2O[C@@H](n3c(NCc4ccc(Cl)c(Cl)c4)nc4c(N)ncnc43)[C@H](O)[C@@H]2O)cc1 (max concentration tested 10000 nM)', 3.83),
  ('CNC(=O)c1cc(Oc2ccc(NC(=O)Nc3ccc(Cl)c(C(F)(F)F)c3)c(F)c2)ccn1 [Regorafenib] (max concentration tested 10000 nM)', 4.49),
  ('CCN1CCN(Cc2ccc(Nc3ncc(F)c(-c4cc(F)c5nc(C)n(C(C)C)c5c4)n3)nc2)CC1 [Abemaciclib] (max concentration tested 2500 nM)', 0.01);

Hello, I am looking for reported drug sensitivity score with KAI3 (IL-2 2.5 ng/mL) for Nc1nccc(-c2c(-c3ccc(F)cc3)ncn2C2CCCCC2)n1 (max concentration tested 10000 nM) . Could you help?
25.2

Another: O=C(Nc1ccc(-c2ccnc(Nc3ccc(N4CCOCC4)cc3)n2)cc1)C1CCCN1 (centres undefined) [XL019] (max concentration tested 10000 nM)
7.51

Another: CCC(C)n1ncn(-c2ccc(N3CCN(c4ccc(OCC5COC(Cn6cncn6)(c6ccc(Cl)cc6Cl)O5)cc4)CC3)cc2)c1=O (centres undefined) [Itraconazole] (max concentration tested 5000 nM)
7.24

Another: CS(=O)(=O)OCCCCOS(C)(=O)=O [Busulfan] (max concentration tested 100000 nM)
6.36

Another: Nc1ccccc1NC(=O)c1ccc(CNC(=O)OCc2cccnc2)cc1 [Entinostat] (max concentration tested 10000 nM)
14.8

Another: C=CCc1cccc(/C=N/NC(=O)CN2CCN(Cc3ccccc3)CC2)c1O [PAC-1] (max concentration tested 10000 nM)
13

Another: CCCCC(=O)OCC(=O)[C@]1(O)Cc2c(O)c3c(c(O)c2[C@@H](O[C@H]2C[C@H](NC(=O)C(F)(F)F)[C@H](O)[C@H](C)O2)C1)C(=O)c1c(OC)cccc1C3=O [Valrubicin] (max concentration tested 5000 nM)
17.4

Another: Cc1sc2c(c1C)C(c1ccc(Cl)cc1)=N[C@@H](CC(=O)OC(C)(C)C)c1nnc(C)n1-2 [(+)JQ1] (max concentration tested 10000 nM)
9.24

Another: C[C@@H](Nc1cc(F)cc(F)c1)c1cc(C(=O)N(C)C)cc2c(=O)cc(N3CCOCC3)oc12 [AZD-8186] (max concentration tested 1000 nM)
0

Another: CN1CCC(COc2cnc(-c3cccc(Cn4nc(-c5cccc(C#N)c5)ccc4=O)c3)nc2)CC1 (max concentration tested 1000 nM)
0

Another: C=C1C[C@@H]2[C@H](CC[C@]3(C)C(=O)CC[C@@H]23)[C@@]2(C)C=CC(=O)C=C12 [Exemestane] (max concentration tested 10000 nM)
2.96
